Test system: U2OS
assaySummary: Multiplex assay against U2OS
Type: toxicity, cell-based
assaySetup: human, 24 h, 1 µM, compound concentration 1 uM, replicate 1
Classes by Population Mitochondria Different-Phenotype (%): category 1 = under 10%, category 2 = from 10% up to 60%, category 3 = 60% and over

Look over these answered cases.
{"columns": ["molecule", "assignedLabel"],
 "data": [
  ["Cc1ccc2nc(NCCN)c3ncc(C)n3c2c1.O=C(O)C(F)(F)F.O=C(O)C(F)(F)F", "category 2"],
  ["Cc1cn(-c2cc(NC(=O)c3ccc(C)c(Nc4nccc(-c5cccnc5)n4)c3)cc(C(F)(F)F)c2)cn1", "category 3"],
  ["CN([C@@H](Cc1ccc(OS(=O)(=O)c2cccc3cnccc23)cc1)C(=O)N1CCN(c2ccccc2)CC1)S(=O)(=O)c1cccc2cnccc12", "category 2"],
  ["CCN1CCN(Cc2ccc(Nc3ncc(F)c(-c4cc(F)c5nc(C)n(C(C)C)c5c4)n3)nc2)CC1.CS(=O)(=O)O", "category 3"],
  ["CCn1c(=O)c(-c2ccc(-c3cncs3)cc2Cl)cc2cnc(Nc3ccc(N4CCN(C)CC4)cc3)nc21", "category 1"]
]}

Place this molecule in its band: Cc1ccc(C(=O)Nc2cccc(C(F)(F)F)c2)cc1Nc1nc(-c2cccnc2)nc2c1cnn2C category 2

Place this molecule in its band: Cl.O=C(c1ccc(Nc2nccc(-c3cc4ccccc4s3)n2)cc1)N1CCC(N2CCCC2)CC1 category 2

Place this molecule in its band: CCCS(=O)(=O)Nc1ccc(F)c(C(=O)c2c[nH]c3ncc(Cl)cc23)c1F category 2

Place this molecule in its band: O=C(Nc1ccc(-c2ccnc(Nc3ccc(N4CCOCC4)cc3)n2)cc1)[C@@H]1CCCN1 category 1

Place this molecule in its band: CN[C@@H]1C[C@H]2O[C@@](C)([C@@H]1OC)n1c3ccccc3c3c4c(c5c6ccccc6n2c5c31)C(=O)NC4 category 2
